B1: Serine/threonine-protein kinase A-Raf, residues 21 to 89; numbered along this chain, P10398 (parent)
chain: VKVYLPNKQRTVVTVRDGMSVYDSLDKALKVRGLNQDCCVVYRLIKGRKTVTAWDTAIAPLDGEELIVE

Variants of: B1
Test: abundance fitness (aPCA) (normalised: wild type 0, dead -1); higher = more abundant; growth selection in yeast, the domain comes from the species named
Conditions: Homo sapiens
Decide using abundance fitness: a value greater than or equal to -0.7 is 1.0, a smaller one is 0.0.

SEQUENCE VARIANT | LABEL CLASS
A59Q | 1.0

Prompt line: Is abundance fitness for P60C at or above -0.7?
Response line: 1.0

Prompt line: Consider next the variant E69F in the same way.
Response line: 0.0

src = the Human Domainome abundance scans (Beltran et al. 2025)
